Test system: Caco2 cells
assay.comment: Caco2 permeability
Format: in vitro ADME
test.context: measured at pH 6.5
measure: Caco2 A to B permeability

Form field Caco2 A to B permeability, entry CN(Cc1cc(=O)[nH]c2ccc(Cl)cc12)C(=O)[C@H](Cc1ccccc1)N(C)C(=O)c1ccc2[nH]c(=O)cc(O)c2c1 : 0.16 1·10^-6 cm/s

Form field Caco2 A to B permeability, entry Cc1c(-c2ccccc2)n[nH]c1C(=O)N(C)Cc1cc(=O)[nH]c2ccc(Cl)cc12 : 19 1·10^-6 cm/s

Form field Caco2 A to B permeability, entry O=C(N[C@@H](Cc1ccccc1)C(=O)NCc1cc(=O)[nH]c2ccc(Cl)cc12)c1ccc2[nH]c(=O)cc(O)c2c1 : < 0.28 1·10^-6 cm/s

Form field Caco2 A to B permeability, entry CN(Cc1cc(=O)[nH]c2ccc(Cl)cc12)C(=O)[C@H](Cc1ccccc1)NC(=O)c1ccc2[nH]c(=O)cc(O)c2c1 : 0.28 1·10^-6 cm/s
